# Necroptosis inhibition assay (Rescue %) 10 μM listing for each entry below
# Test system: FADD−/− Jurkat cells
# assay procedure: Necroptosis inhibition assay, TNF-α-induced necroptosis (CellTiter-Glo 2.0)
# Assay type: cell-based, human
# conditions: compound 10 μM; TNF-α 15 ng/mL, FADD−/− Jurkat cells
The reply should contain only the number, in %.

Below, 9 compounds whose answers are already recorded.
>  <compound>
Nc1ncc(-c2cnn(C3CCN(CC4CCN(CC5CCN(C(=O)C6CCN(C7=CC(=O)N(C8CCC(=O)NC8=O)C7=O)CC6)CC5)CC4)CC3)c2)nc1C(=O)O[C@@H](C(=O)Nc1ccc(F)cc1)c1ccccc1 (stereo partly shown) [TDH-527]

>  <observed result>
−12.98

$$$$
>  <compound>
Nc1ncc(-c2cnn(C3CCN(CC4CCN(CCC5CCN(C(=O)Cc6cccc(NC7=CC(=O)N(C8CCC(=O)NC8=O)C7=O)c6)CC5)CC4)CC3)c2)nc1C(=O)O[C@@H](C(=O)Nc1ccc(F)cc1)c1ccccc1 (stereo partly shown) [TDH-507]

>  <observed result>
14.19

$$$$
>  <compound>
Nc1ncc(-c2cnn(C3CCN(C(=O)CC4CCN(C(=O)C5CCN(c6cccc7nnn(C8CCC(=O)NC8=O)c(=O)c67)CC5)CC4)CC3)c2)nc1C(=O)O[C@@H](C(=O)Nc1ccc(F)cc1)c1ccccc1 (stereo partly shown) [TDH-412]

>  <observed result>
29.48

$$$$
>  <compound>
Nc1ncc(-c2cnn(C3CCN(CCC4CCN(C(=O)c5ccc6c(N7CCC(=O)NC7=O)coc6c5)CC4)CC3)c2)nc1C(=O)O[C@@H](C(=O)Nc1ccc(F)cc1)c1ccccc1 [TDH-552]

>  <observed result>
6.25

$$$$
>  <compound>
Nc1ncc(-c2cnn(C3CCN(C(=O)C4CCN(C(=O)C5CCN(c6ccc7nnn(C8CCC(=O)NC8=O)c(=O)c7c6)CC5)CC4)CC3)c2)nc1C(=O)O[C@@H](C(=O)Nc1ccc(F)cc1)c1ccccc1 (stereo partly shown) [TDH-410]

>  <observed result>
27.36

$$$$
>  <compound>
COc1ccc(C(=O)N2CCC(OCCN3CCC(n4cc(-c5cnc(N)c(C(=O)O[C@@H](C(=O)Nc6ccc(F)cc6)c6ccccc6)n5)cn4)CC3)CC2)cc1N1CCC(=O)NC1=O [TDH-448]

>  <observed result>
20.07

$$$$
>  <compound>
Nc1ncc(-c2cnn(C3CCN(CCCC4CCN(C(=O)COc5ccc6c(c5)C(=O)N(C5CCC(=O)NC5=O)C6=O)CC4)CC3)c2)nc1C(=O)O[C@@H](C(=O)Nc1ccc(F)cc1)c1ccccc1 (stereo partly shown) [TDH-482]

>  <observed result>
42.16

$$$$
>  <compound>
Nc1ncc(-c2cnn(C3CCN(CC4CCN(CCC5CCN(c6cc7c(cc6F)C(=O)N(C6CCC(=O)NC6=O)C7=O)CC5)CC4)CC3)c2)nc1C(=O)O[C@@H](C(=O)Nc1ccc(F)cc1)c1ccccc1 (stereo partly shown) [TDH-513]

>  <observed result>
−61.68

$$$$
>  <compound>
Nc1ncc(-c2cnn(C3CCN(C(=O)CCC4CCN(C(=O)C5CCN(c6cccc7nnn(C8CCC(=O)NC8=O)c(=O)c67)CC5)CC4)CC3)c2)nc1C(=O)O[C@@H](C(=O)Nc1ccc(F)cc1)c1ccccc1 (stereo partly shown) [TDH-435]

>  <observed result>
11.49

$$$$

With those in mind, consider the next compound.
Prompt line: Consider the compound Nc1ncc(-c2cnn(C3CCN(C(=O)CC4CCN(C(=O)CNc5cccc6nnn(C7CCC(=O)NC7=O)c(=O)c56)CC4)CC3)c2)nc1C(=O)O[C@@H](C(=O)Nc1ccc(F)cc1)c1ccccc1 (stereo partly shown) [TDH-411] and give its measured Necroptosis inhibition assay (Rescue %) 10 μM.
Response line: 10.81

Cited source: patent US20240252488A1
